Test system: THP-1
procedure_text: Induction of cell cycle arrest in human THP1 cells assessed accumulation at subG1 phase at 25 uM incubated for 48 hrs by propidium iodide staining based microcapillary flow cytometry (reference value: 2 +/- 1%)
Type: functional

[
  {
    "chemical_string": "Cl.Nc1nc(-c2cccc(NC(=O)c3cc4cc(Cl)ccc4[nH]3)c2)c[nH]1",
    "assayed_target": "THP-1",
    "result_unit": "%",
    "Activity": 40
  },
  {
    "chemical_string": "CNc1nc(-c2cccc(NC(=O)c3cc4ccccc4[nH]3)c2)c[nH]1.Cl",
    "assayed_target": "THP-1",
    "result_unit": "%",
    "Activity": 49
  },
  {
    "chemical_string": "COc1ccc2[nH]c(C(=O)Nc3cccc(-c4c[nH]c(N)n4)c3)cc2c1.Cl",
    "assayed_target": "THP-1",
    "result_unit": "%",
    "Activity": 60
  },
  {
    "chemical_string": "Cl.Nc1nc(-c2cccc(NC(=O)c3cc4cc(F)ccc4[nH]3)c2)c[nH]1",
    "assayed_target": "THP-1",
    "result_unit": "%",
    "Activity": 41
  }
]
